Taken from the supplement of paper PMC7125110.

B1: glmS ribozyme (parent)
chain: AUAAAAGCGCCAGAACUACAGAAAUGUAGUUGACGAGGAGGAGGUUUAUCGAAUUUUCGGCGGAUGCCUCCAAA

Variants of: B1
test.method.notes: self-cleavage kobs at 640 uM GlcN6P; higher = faster cleavage; RNA array
assay.context: with glucosamine-6-phosphate
This sample holds only a part of the variants without activity.
So I've got a bunch of variants here, and I need their self-cleavage kobs at 640 uM GlcN6P values.
Could you give me the number in s⁻¹? Just the number is fine.

Look up self-cleavage kobs at 640 uM GlcN6P of C8U A12U G37U C61A A64U C67G and report it.
0.000544

Report self-cleavage kobs at 640 uM GlcN6P for A53U C67G
0.000519

Respond only with self-cleavage kobs at 640 uM GlcN6P recorded for A39G A64U
3.77e-05

Return self-cleavage kobs at 640 uM GlcN6P for the following variant: C10A C16U C67G
0.000345

Return self-cleavage kobs at 640 uM GlcN6P (reported value) for this variant: U45C U56G
0.000335

Report self-cleavage kobs at 640 uM GlcN6P for A53C G66C
9.27e-05

State its self-cleavage kobs at 640 uM GlcN6P for this variant: A14U U45A
0.00404

Supply recorded self-cleavage kobs at 640 uM GlcN6P for U47G C50A A64G U69G here.
0.000155

Look up and report measured self-cleavage kobs at 640 uM GlcN6P for this entry: A64G G66U
0.000588
